B1: Ventral anterior homeobox 1, residues 102 to 157; numbered along this chain, Q5SQQ9 (parent)
chain: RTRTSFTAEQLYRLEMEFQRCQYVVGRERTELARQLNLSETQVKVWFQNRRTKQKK

- Variants of: B1
- TEST_DESCRIPTION: abundance fitness (aPCA) (normalised: wild type 0, dead -1); higher = more abundant; growth selection in yeast, the domain comes from the species named
- EXPERIMENTAL_CONTEXT: Homo sapiens
Returns one of condition met or condition not met; condition met when abundance fitness is >= -0.3.

Worked cases, answers included:
>>> df
   alteration     discrete_label
0         A8R  condition not met
1        Q54L      condition met
2        K53H      condition met
3        L36C      condition met
4        Q19S      condition met

Input: Decide: is the reported value of abundance fitness for Q22R equal to or greater than -0.3?
Output: condition not met

Input: Decide: is the reported value of abundance fitness for T30Q equal to or greater than -0.3?
Output: condition not met
